Where do these numbers come from? They come from the supplement of paper PMC6555819.

Tested on: PPARg DBDmut IVT, anti-PPARg (DBD mutation: PPARg1 K132A/R137A, NR concentration 270 nM)
MEASUREMENT PROTOCOL: PBM binding z-score (relative to random genomic background probes); higher = stronger binding; sequences stand for … in GC…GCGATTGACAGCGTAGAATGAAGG
Recorded PBM binding z-score by entry
Could you keep your reply to the number by itself?

Recorded PBM binding z-score, per entry:
1. AGAATGAGGTTACCAAAGTTCAGGGAAACGCTTG ... 0.161
2. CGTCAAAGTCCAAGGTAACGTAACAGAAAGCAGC ... 0.896

Give PBM binding z-score (PPARg DBDmut IVT, anti-PPARg (DBD mutation: PPARg1 K132A/R137A, NR concentration 270 nM)) of the following sequence: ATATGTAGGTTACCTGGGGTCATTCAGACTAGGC
1.81

Request - read-out PBM binding z-score | tested on PPARg DBDmut IVT, anti-PPARg (DBD mutation: PPARg1 K132A/R137A, NR concentration 270 nM) | sequence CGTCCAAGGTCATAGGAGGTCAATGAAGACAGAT
0.632

Under PPARg DBDmut IVT, anti-PPARg (DBD mutation: PPARg1 K132A/R137A, NR concentration 270 nM): PBM binding z-score value of CGTCCAAGGTCAGCGGGTCAGTGAAAGCGACGTG ?
-0.244

Checklist item: PBM binding z-score tested on PPARg DBDmut IVT, anti-PPARg (DBD mutation: PPARg1 K132A/R137A, NR concentration 270 nM), entry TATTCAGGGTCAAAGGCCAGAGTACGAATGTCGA , value?
6.08

Find PBM binding z-score (PPARg DBDmut IVT, anti-PPARg (DBD mutation: PPARg1 K132A/R137A, NR concentration 270 nM)) for the entry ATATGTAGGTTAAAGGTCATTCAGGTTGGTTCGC
3.73

What is its PBM binding z-score for PPARg DBDmut IVT, anti-PPARg (DBD mutation: PPARg1 K132A/R137A, NR concentration 270 nM)? Entry: CCTTAGGGGTCACTGACAGGTTATAGCATTTGGA
2.53

----------
PBM binding z-score: recorded values
Tested on: VDR homodimer (NR concentration 270 nM)
MEASUREMENT PROTOCOL: PBM binding z-score (relative to random genomic background probes); higher = stronger binding; sequences stand for … in GC…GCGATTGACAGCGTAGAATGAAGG

Known PBM binding z-score results, listed for orientation:
1) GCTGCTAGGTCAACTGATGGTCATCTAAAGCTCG ... 0.187
2) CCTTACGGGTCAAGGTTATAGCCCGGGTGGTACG ... 1.24
3) CAAACGAGGTCACCGGAAGGTCAAAGTCCGCATG ... 6

So what PBM binding z-score did CCTTAGGGGTCACGAGGTTATAGCACGACGAGCG get with VDR homodimer (NR concentration 270 nM)?
4.55

Please provide the recorded PBM binding z-score for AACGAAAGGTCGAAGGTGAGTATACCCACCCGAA , tested on VDR homodimer (NR concentration 270 nM).
0.527

Find the measured PBM binding z-score: item CCTTACGGGTCACGAGGTTGTAGCACGACGAGCG , target or system VDR homodimer (NR concentration 270 nM).
1.99
